# Target or test system: 5-hydroxytryptamine receptor 2A (Rattus norvegicus) (UniProt P14842)
# Sequence (P14842 whole entry): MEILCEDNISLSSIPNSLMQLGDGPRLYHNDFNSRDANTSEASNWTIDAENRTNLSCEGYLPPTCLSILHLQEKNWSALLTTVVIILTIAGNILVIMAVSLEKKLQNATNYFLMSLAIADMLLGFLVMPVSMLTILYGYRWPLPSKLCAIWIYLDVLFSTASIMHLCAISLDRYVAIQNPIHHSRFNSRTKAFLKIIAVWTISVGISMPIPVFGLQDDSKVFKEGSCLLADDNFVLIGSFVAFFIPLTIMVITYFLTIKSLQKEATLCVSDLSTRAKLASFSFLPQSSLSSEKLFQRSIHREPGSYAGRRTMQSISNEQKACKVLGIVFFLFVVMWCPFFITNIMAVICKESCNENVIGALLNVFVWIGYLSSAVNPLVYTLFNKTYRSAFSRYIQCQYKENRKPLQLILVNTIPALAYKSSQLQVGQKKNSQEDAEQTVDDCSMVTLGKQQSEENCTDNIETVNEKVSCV
# Protocol details: Relative potency towards 5-HT2A receptor of rat tail artery
# Type: functional, tissue-based
Quantity kind: Relative potency

Smiles text: CN1C[C@H](COC(=O)C2CC2)C=C2c3cccc4[nH]cc(c34)C[C@H]21.O=C(O)/C=C\C(=O)O
Result: 331%
//
Smiles text: CN1C[C@H](COC(=O)C2CCCCCC2)C=C2c3cccc4[nH]cc(c34)C[C@H]21.O=C(O)/C=C\C(=O)O
Result: 14%
//
Smiles text: CN1C[C@H](CO)C=C2c3cccc4[nH]cc(c34)C[C@H]21
Result: 74%
//
Smiles text: CN1C[C@H](COC(=O)C2CCCC2)C=C2c3cccc4[nH]cc(c34)C[C@H]21.O=C(O)/C=C\C(=O)O
Result: 128%
//
Smiles text: CN1C[C@H](COC(=O)C2CCC2)C=C2c3cccc4[nH]cc(c34)C[C@H]21.O=C(O)/C=C\C(=O)O
Result: 185%

IN: For CN1C[C@H](COC(=O)C2CCCCC2)C=C2c3cccc4[nH]cc(c34)C[C@H]21.O=C(O)/C=C\C(=O)O , what is its reported Relative potency?
OUT: 49%

Source: ChEMBL document CHEMBL1132168
